# Tested on: E. coli MG 1655
# Method: Antibacterial MIC, CLSI broth microdilution
# Type: cell-based
# Measurement Parameters: Escherichia coli, MG1655; 35° C., 18-24 hours
Quantity: MIC

Sample answers from the record:
- Molecule: "CCONCc1ccc(O)c2c1C[C@H]1C[C@H]3[C@H](N(C)C)C(O)=C(C(N)=O)C(=O)[C@@]3(O)C(O)=C1C2=O [AA]"
  Quantity: "MIC"
  Endpoint Result: "4 to 8 µg/mL"
- Molecule: "CCO/N=C(/CCN(C)C)c1ccc(O)c2c1C[C@H]1C[C@H]3[C@@H](N(C)C)C(O)=C(C(N)=O)C(=O)[C@@]3(O)C(O)=C1C2=O [AN]"
  Quantity: "MIC"
  Endpoint Result: "< 4 µg/mL"

Next molecule, please.
State its MIC on E. coli MG 1655: CN(C)[C@@H]1C(O)=C(C(N)=O)C(=O)[C@@]2(O)C(O)=C3C(=O)c4c(O)ccc(CN5CCCCO5)c4C[C@H]3C[C@@H]12 [DR] > 8 µg/mL
